- assay text: Tissue distribution of THP, DHC and protopine in rat tissues after gastric gavage administration (HPLC-UV, non-compartmental analysis)
- Type: in vivo, Wistar male rats
- experimental context: male, Wistar, po, 4.52 mg/kg, rat heart, read-out: Cmax of protopine
recorded metric: Cmax (ng/mL)

{"compound": "CN1CCc2cc3c(cc2C(=O)Cc2ccc4c(c2C1)OCO4)OCO3 [protopine]", "measured number": 1500}

----------
- assay text: Tissue distribution of THP, DHC and protopine in rat tissues after gastric gavage administration (HPLC-UV, non-compartmental analysis)
- Format: in vivo, Wistar male rats
- experimental context: male, Wistar, po, 4.52 mg/kg, rat cerebellum, read-out: MRT of protopine
recorded metric: MRT (h)

{"compound": "CN1CCc2cc3c(cc2C(=O)Cc2ccc4c(c2C1)OCO4)OCO3 [protopine]", "value unit": "h", "measured number": 4.86}
